# system: AMPA receptor
# testName: AMPA receptor binding affinity (as described by T. Honoré et al., Neuroscience Letters 54, 27-32 (1985))
# reportedConditions: binding affinity for the AMPA receptor
Overview of reported pIC50 across a group of compounds:
pIC50 is defined as minus the log10 of a concentration measured in mol/L.

1) CN1CCc2c(-c3ccc([N+](=O)[O-])cc3)cc3c(c2C1)NC(=O)C3=NO [Compound 10] | 6.82

Could you share which pIC50 value was measured for CCN1Cc2c(-c3ccccc3)cc3c(c2C1)NC(=O)C3=NO [Compound 13] ?
7.00

Could you share which pIC50 value was measured for CN1Cc2c(-c3ccc([N+](=O)[O-])cc3)cc3[nH]c(=O)c(=O)[nH]c3c2C1 [Compound 3] ?
6.22

Could you share which pIC50 value was measured for CN1CCc2c(-c3ccccc3)cc3c(c2C1)NC(=O)C3=NO [Compound 9] ?
6.70
